The variants listed here are annotated with their normalized RNA/DNA level with ligand (log10).
B1: library; a variant is named by its letters at N, in order (parent)
chain: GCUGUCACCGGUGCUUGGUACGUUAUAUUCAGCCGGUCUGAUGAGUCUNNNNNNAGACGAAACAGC

# Variants of: B1
# protocol_description: normalized RNA/DNA level with ligand (relative to sTRSVctl = 100) (log10 (% of sTRSVctl)); HEK293T overexpressing SLC46A1; ligand concentration (+) RNA-Seq: 6 mM; higher = less ribozyme self-cleavage, higher mRNA level
# details: with (6R,S)-folinic acid; ligand present: yes
I only need the number, thanks.

Field: example entries. Status: answers known.
AUCACA :: 2.02
GACCGG :: 2.05
ACAUGC :: 2.04
GAGUGA :: 2
CGUAAA :: 1.98
GUCAAC :: 2.03

Prompt line: # normalized RNA/DNA level with ligand (log10) lookup, item `AAGAUU`
Response line: 2.02

Prompt line: # normalized RNA/DNA level with ligand (log10) lookup, item `AGAAGG`
Response line: 2.01

Prompt line: # normalized RNA/DNA level with ligand (log10) lookup, item `GCGUUA`
Response line: 2.02

Prompt line: # normalized RNA/DNA level with ligand (log10) lookup, item `AGAAGC`
Response line: 2.05

Prompt line: # normalized RNA/DNA level with ligand (log10) lookup, item `CGGGAA`
Response line: 2.02

Prompt line: # normalized RNA/DNA level with ligand (log10) lookup, item `CGUUAA`
Response line: 1.98

Prompt line: # normalized RNA/DNA level with ligand (log10) lookup, item `GAACAU`
Response line: 2.01

Prompt line: # normalized RNA/DNA level with ligand (log10) lookup, item `GUGAUG`
Response line: 1.99
